Test system: HCI13 (cells of an ER-positive luminal breast cancer xenograft);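 note: PDX cells carrying CMV promoter-driven luciferase, viability read as total photon flux per second by IVIS imaging following D-luciferin, vehicle control 0.1% DMSO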
PROTOCOL_SUMMARY: cell viability (% of vehicle); higher = less cytotoxic
CONDITION_DETAILS: 10 µM; 72 h
OBSERVABLE: cell viability
// return just the number, without any unit appended

Recorded results for 3 molecules are shown here.
Cc1cc(C=CC#N)cc(C)c1Nc1ccnc(Nc2ccc(C#N)cc2)n1
122
Nc1ccn(CC(CO)OCP(=O)(O)O)c(=O)n1.O.O (centres undefined) [Cidofovir dihydrate]
152
Br.Br.Br.Br.Br.Cc1cc(N2CCN(C3CNC(C(=O)N4CCSC4)C3)CC2)n(-c2ccccc2)n1.Cc1cc(N2CCN(C3CNC(C(=O)N4CCSC4)C3)CC2)n(-c2ccccc2)n1 (centres undefined) [Teneligliptin hydrobromide]
80

Fill in: cell viability of CN(C)CCc1c[nH]c2ccc(CS(=O)(=O)N3CCCC3)cc12.O=C(O)CC(O)C(=O)O [Almotriptan Malate] is ___
84.8

Fill in: cell viability of CNC(=O)C(Cc1c[nH]c2ccccc12)NC(=O)C(CC(=O)NO)CC(C)C (centres undefined) is ___
92.5

Fill in: cell viability of COc1nc(C)cnc1NS(=O)(=O)c1cccnc1-c1ccc(-c2nnco2)cc1 [Zibotentan (ZD4054)] is ___
125

Fill in: cell viability of CN(Cc1cnc2nc(N)nc(N)c2n1)c1ccc(C(=O)NC(CCC(=O)O)C(=O)O)cc1 (centres undefined) [Methotrexate] is ___
104

Fill in: cell viability of OCC1OC(O)C(O)C(O)C1O (centres undefined) is ___
124

Fill in: cell viability of Cc1cccc(C)c1NC(=O)C1CCCCN1C.Cl (centres undefined) [Mepivacaine HCl] is ___
124

Provenance of the data: the supplement of paper PMC6992640
